These entries and their values trace back to ChEMBL document CHEMBL1201862.

system: SN12C; experiment: NCI tumour cell line growth inhibition, 48 h
Activity calls are given as the source filed them. Rule as the data show it: active = GI50 up to about 1.1 µM and inactive = higher.
Listed compounds paired with reported GI50

Guide cases for GI50, answers given:
[
  {
    "compound": "CC(=O)NCCCCNCCCNC(C)=O",
    "GI50": "> 100 µM (inactive)"
  },
  {
    "compound": "CC1=C(/C=C/C(C)=C/C=C/C(C)=C/C=C/C=C(C)/C=C/C=C(C)/C=C/C=C(C)/C=C/C=C(\\C)C(=O)O)C(C)(C)CCC1",
    "GI50": "> 100 µM (inactive)"
  },
  {
    "compound": "CCOc1ccccc1N1CSc2nnc(-c3ccccc3)n2C1",
    "GI50": "> 100 µM (inactive)"
  }
]

Look up GI50 with SN12C for this compound: O=C(NN1C(=O)C(Cl)C1c1ccc(Cl)cc1)c1c(Cl)c(Cl)c(Cl)c(Cl)c1-c1nc2ccccc2[nH]1 (centres undefined)
23 µM (inactive)

Do the same for CCn1c(=O)nc2n(-c3ccc(SC)cc3)c3ccccc3nc-2c1=O please
> 100 µM (inactive)

Input CCN(CC)CCC(=O)c1ccc(Oc2ccc(F)cc2)cc1
18.2 µM (inactive)

Then what about the compound COC1CCC2C(NS(=O)(=O)c3ccc(C)cc3)CCCC2O1.Cc1ccc(S(=O)(=O)NC(C)(C)C=O)cc1 (centres undefined) ?
23.5 µM (inactive)

// query: Clc1cc2ncn(C3CCCO3)c2cc1Cl (centres undefined)
> 100 µM (inactive)

Next: NCCN1C(=O)c2ccccc2C1(O)c1ccc(Cl)cc1 (centres undefined)
35.2 µM (inactive)
